target: Elastase; experiment: Mouse macrophage elastase activity; type: cell-based; settings: Table XVIII; mouse macrophage, 60 min incubation; read-out: Elastase IC50
pIC50: −log10 of the molar value. Structures can show the parent of a compound that is named as a salt.
Measured pIC50 accompanies every entry in the list below.
propertyLabel: pIC50

INSERT INTO assay_data (molecule, number) VALUES
  ('CC(C)=O.C[N+](C)(C)[BH2-]C(=O)[O-].O=[N+]([O-])[O-].[Ca+2]', 5.23),
  ('C[N+](C)(C)[BH2-]C(=O)O [Compound 22, sodium salt]', 5.14),
  ('C[NH+](C)[BH2-]C(=O)O [Compound 23, Dimethylamine-carboxyborane, sodium salt]', 5.20);

====

Measured pIC50 accompanies every entry in the list below.
system: Trypsin; assay: Mouse macrophage trypsin (BAEE) activity; type: cell-based; conditions: Table XVIII; mouse macrophage, 60 min incubation; read-out: Trypsin BAEE IC50
pIC50: −log10 of the molar value. Structures can show the parent of a compound that is named as a salt.
propertyLabel: pIC50

INSERT INTO assay_data (compound, propertylabel, number) VALUES
  ('C[NH+](C)[BH2-]C(=O)O [Compound 23, Dimethylamine-carboxyborane, sodium salt]', 'pIC50', 5.66),
  ('C[N+](C)(C)[BH2-]C(=O)[O-].C[N+](C)(C)[BH2-]C(=O)[O-].NCCN.NCCN.[Cl-].[Co+3]', 'pIC50', 5.86),
  ('CC#N.CO.CO.CO.C[N+](C)(C)[BH2-]C(=O)[O-].C[N+](C)(C)[BH2-]C(=O)[O-].C[N+](C)(C)[BH2-]C(=O)[O-].C[N+](C)(C)[BH2-]C(=O)[O-].C[N+](C)(C)[BH2-]C(=O)[O-].C[N+](C)(C)[BH2-]C(=O)[O-].O=[N+]([O-])[O-].[Fe+3].[Fe+3].[Fe+3].[O-2]', 'pIC50', 5.63),
  ('CC#N.CO.C[N+](C)(C)[BH2-]C(=O)[O-].C[N+](C)(C)[BH2-]C(=O)[O-].C[N+](C)(C)[BH2-]C(=O)[O-].C[N+](C)(C)[BH2-]C(=O)[O-].C[N+](C)(C)[BH2-]C(=O)[O-].C[N+](C)(C)[BH2-]C(=O)[O-].O.O=[N+]([O-])[O-].[Cr+3].[Cr+3].[Cr+3].[O-2]', 'pIC50', 5.68),
  ('C[N+](C)(C)[BH2-]C(=O)[O-].C[N+](C)(C)[BH2-]C(=O)[O-].C[N+](C)(C)[BH2-]C(=O)[O-].C[N+](C)(C)[BH2-]C(=O)[O-].C[N+](C)(C)[BH2-]C(=O)[O-].C[N+](C)(C)[BH2-]C(=O)[O-].O.O.O.[Cl-].[Fe+3].[Fe+3].[Fe+3].[O-2]', 'pIC50', 5.74),
  ('CC(C)=O.C[N+](C)(C)[BH2-]C(=O)[O-].O=[N+]([O-])[O-].[Ca+2]', 'pIC50', 5.62),
  ('BC(=O)O', 'pIC50', 5.65),
  ('C[N+](C)(C)[BH2-]C(=O)O [Compound 22, sodium salt]', 'pIC50', 5.64);

====

Target: Prostaglandin synthetase (Bos taurus, UniProt O62664)
Construct: Prostaglandin synthetase purified beef seminal vesicle; from tissue
Sequence (O62664 25-600): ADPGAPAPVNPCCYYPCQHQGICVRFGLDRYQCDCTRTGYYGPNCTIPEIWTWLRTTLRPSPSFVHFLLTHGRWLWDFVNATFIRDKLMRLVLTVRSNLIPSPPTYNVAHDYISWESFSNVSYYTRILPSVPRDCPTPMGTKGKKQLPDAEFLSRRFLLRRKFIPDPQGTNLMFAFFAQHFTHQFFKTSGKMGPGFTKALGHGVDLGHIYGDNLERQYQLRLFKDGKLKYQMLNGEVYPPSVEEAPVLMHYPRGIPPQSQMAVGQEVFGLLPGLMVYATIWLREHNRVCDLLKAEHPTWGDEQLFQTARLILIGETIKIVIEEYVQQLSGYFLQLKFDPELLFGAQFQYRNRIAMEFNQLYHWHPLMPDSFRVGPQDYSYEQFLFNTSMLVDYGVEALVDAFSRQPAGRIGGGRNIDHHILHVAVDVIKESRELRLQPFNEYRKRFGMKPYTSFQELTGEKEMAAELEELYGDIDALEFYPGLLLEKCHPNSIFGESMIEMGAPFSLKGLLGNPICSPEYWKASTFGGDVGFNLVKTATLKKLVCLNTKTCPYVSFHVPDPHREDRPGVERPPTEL
Assay: Prostaglandin synthetase (cyclooxygenase), purified beef seminal vesicle
Format: biochemical
propertyLabel: IC50 (µM)

INSERT INTO measurements (compound, number) VALUES
  ('C[N+](C)(C)[BH2-]C#N [Compound 2, Trimethylamine-cyanoborane]', 5.9);

====

test system: Cf1 male mice; assay: Anti-inflammatory screen, Winter's test, 2% carrageenan hind foot; assay type: in vivo; details: Table XIV; unit inferred; unit assumed
propertyLabel: Anti-Inflammation Cf1 Mice (%)

INSERT INTO assay_data (structurenotation, propertylabel, number) VALUES
  ('C[N+](C)(C)[BH2-]C(=O)[O-].C[N+](C)(C)[BH2-]C(=O)[O-].NCCN.NCCN.[Cl-].[Co+3]', 'Anti-Inflammation Cf1 Mice', 49.6),
  ('CC#N.CO.C[N+](C)(C)[BH2-]C(=O)[O-].C[N+](C)(C)[BH2-]C(=O)[O-].C[N+](C)(C)[BH2-]C(=O)[O-].C[N+](C)(C)[BH2-]C(=O)[O-].C[N+](C)(C)[BH2-]C(=O)[O-].C[N+](C)(C)[BH2-]C(=O)[O-].O.O=[N+]([O-])[O-].[Cr+3].[Cr+3].[Cr+3].[O-2]', 'Anti-Inflammation Cf1 Mice', 58.5),
  ('BC(=O)O', 'Anti-Inflammation Cf1 Mice', 41.7),
  ('CC(C)=O.C[N+](C)(C)[BH2-]C(=O)[O-].O=[N+]([O-])[O-].[Ca+2]', 'Anti-Inflammation Cf1 Mice', 65),
  ('CC#N.CO.CO.CO.C[N+](C)(C)[BH2-]C(=O)[O-].C[N+](C)(C)[BH2-]C(=O)[O-].C[N+](C)(C)[BH2-]C(=O)[O-].C[N+](C)(C)[BH2-]C(=O)[O-].C[N+](C)(C)[BH2-]C(=O)[O-].C[N+](C)(C)[BH2-]C(=O)[O-].O=[N+]([O-])[O-].[Fe+3].[Fe+3].[Fe+3].[O-2]', 'Anti-Inflammation Cf1 Mice', 81.6);

====

system: Hydroxyproline; assay: Serum and urine hydroxyproline levels in vivo; conditions: Cf1 male mice, 8 mg/kg/day I.P. 14 days, N=6
Threshold check on Hydroxyproline urine: at or above 50 % Control gives condition met, strictly below gives condition not met.

INSERT INTO measurements (structurenotation, classification) VALUES
  ('CCCCCCCCCCCCCCCCCC[N+](C)(C)[BH2-]C(=O)O', 'condition met'),
  ('C[N+](C)(C)[BH2-]C#N', 'condition not met'),
  ('CC[NH2+][BH2-]C(=O)O', 'condition met'),
  ('O=C(O)[BH2-][P+](c1ccccc1)(c1ccccc1)c1ccccc1', 'condition not met'),
  ('C[NH2+][BH2-]C(=O)OC', 'condition met'),
  ('CCCCCCCCCCCCCCCC[N+](C)(C)[BH2-]C(=O)O', 'condition not met');

====

system: Cathepsin; experiment: Human leukocyte cathepsin; assay type: cell-based; conditions: read-out: Cathepsin IC50; Table XII; human leukocytes, 60 min incubation
Measured IC50 accompanies every entry in the list below.
propertyLabel: IC50 (µM)

INSERT INTO measurements (structurenotation, measureunit, number) VALUES
  ('C[NH+](C)[BH2-]C#N', 'µM', 53.8),
  ('[BH3-][NH+]1CCOCC1', 'µM', 72.8),
  ('C[N+](C)(C)[BH2-]C#N', 'µM', 77.1),
  ('C[B-](C#N)(C#N)[N+](C)(C)C', 'µM', 65.2);

====

system: Prostaglandin cyclooxygenase; experiment: Mouse macrophage prostaglandin cyclooxygenase activity; format: cell-based; details: read-out: Prostaglandin Cyclooxygenase IC50; Table VIII; mouse macrophages, 60 min incubation
propertyLabel: IC50 (µM)

INSERT INTO assay_data (structurenotation, propertylabel, number) VALUES
  ('C[B-](C#N)(C#N)[N+](C)(C)C', 'IC50', 3.05),
  ('[BH3-][NH+]1CCOCC1', 'IC50', 1.47),
  ('C[NH+](C)[BH2-]C#N', 'IC50', 5.92),
  ('C[N+](C)(C)[BH2-]C#N', 'IC50', 5.88);

====

target: Pg. cyclooxygenase (Sus scrofa); construct: Porcine Seminal; from tissue; the methods section prints beef seminal vesicle; experiment: Porcine seminal vesicles Pg. cyclooxygenase; type: biochemical
Sequence (A0A287ANF9 25-600): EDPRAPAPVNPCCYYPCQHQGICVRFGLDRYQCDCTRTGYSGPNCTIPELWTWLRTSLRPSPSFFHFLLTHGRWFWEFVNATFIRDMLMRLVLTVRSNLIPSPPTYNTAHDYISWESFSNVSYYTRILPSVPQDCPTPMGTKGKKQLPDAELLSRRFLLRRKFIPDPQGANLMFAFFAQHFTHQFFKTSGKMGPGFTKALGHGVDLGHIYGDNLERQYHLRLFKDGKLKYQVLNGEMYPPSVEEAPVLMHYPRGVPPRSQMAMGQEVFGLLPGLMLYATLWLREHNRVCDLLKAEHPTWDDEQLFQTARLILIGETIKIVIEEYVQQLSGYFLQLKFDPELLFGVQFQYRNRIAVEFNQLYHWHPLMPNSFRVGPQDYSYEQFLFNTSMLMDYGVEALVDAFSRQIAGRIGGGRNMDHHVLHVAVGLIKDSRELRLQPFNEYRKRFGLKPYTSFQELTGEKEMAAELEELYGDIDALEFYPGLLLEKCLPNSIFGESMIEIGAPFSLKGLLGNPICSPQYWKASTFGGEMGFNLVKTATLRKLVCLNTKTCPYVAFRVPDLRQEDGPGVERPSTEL
Counter-ions that a name gives are not always drawn.
Measured IC50 accompanies every entry in the list below.
propertyLabel: IC50 (nM)

INSERT INTO assay_data (molecule, number) VALUES
  ('C[NH+](C)[BH2-]C(=O)O [Compound 23, Dimethylamine-carboxyborane, sodium salt]', 3100),
  ('C[N+](C)(C)[BH2-]C(=O)O [Compound 22, sodium salt]', 2400);
